Origin of measurements: ChEMBL document CHEMBL3880442

Would you mind telling me the reported Activity of each entry?
- Tested on: Rattus norvegicus
- Assay Protocol: Effect on sodium level in urine in Sprague-Dawley rat at 3 mg/kg administered via oral gavage measured after 16 hrs by gravimetric analysis relative to vehicle-treated control
- Type: functional
Please don't drop the unit; write it after the number.

Please fill in: Activity reported for CN1Cc2c(Cl)cc(Cl)cc2[C@@H](c2cccc(S(=O)(=O)NCCOCCOCCNC(=O)NCCCC(N)(CCCNC(=O)NCCOCCOCCNS(=O)(=O)c3cccc([C@@H]4CN(C)Cc5c(Cl)cc(Cl)cc54)c3)CCCNC(=O)NCCOCCOCCNS(=O)(=O)c3cccc([C@@H]4CN(C)Cc5c(Cl)cc(Cl)cc54)c3)c2)C1 = 56%

// CN1Cc2c(Cl)cc(Cl)cc2[C@H](c2cccc(S(=O)(=O)NCCOCCOCCN(C)C(=O)NCCCN(CCCNC(=O)N(C)CCOCCOCCNS(=O)(=O)c3cccc([C@@H]4CN(C)Cc5c(Cl)cc(Cl)cc54)c3)CCCNC(=O)N(C)CCOCCOCCNS(=O)(=O)c3cccc([C@@H]4CN(C)Cc5c(Cl)cc(Cl)cc54)c3)c2)C1 : Activity value = 38%

Reported Activity ( CN1Cc2c(Cl)cc(Cl)cc2[C@H](c2cccc(S(=O)(=O)NCCOCCOCCNC(=O)CCC(CCC(=O)NCCOCCOCCNS(=O)(=O)c3cccc([C@@H]4CN(C)Cc5c(Cl)cc(Cl)cc54)c3)(CCC(=O)NCCOCCOCCNS(=O)(=O)c3cccc([C@@H]4CN(C)Cc5c(Cl)cc(Cl)cc54)c3)NC(=O)N3CCN(CCOCCO)CC3)c2)C1 ) = 31%

Recorded Activity (molecule CN1Cc2c(Cl)cc(Cl)cc2[C@H](c2cccc(S(=O)(=O)NCCOCCOCCNC(=O)CCC(CCC(=O)NCCOCCOCCNS(=O)(=O)c3cccc([C@@H]4CN(C)Cc5c(Cl)cc(Cl)cc54)c3)(CCC(=O)NCCOCCOCCNS(=O)(=O)c3cccc([C@@H]4CN(C)Cc5c(Cl)cc(Cl)cc54)c3)NC(=O)N[C@@H](CC(=O)O)C(=O)O)c2)C1 ): 41%
